Data origin, for the record: the MegaScale stability set (Tsuboyama et al. 2023)

B1: EHEE_rd3_0053 (parent)
chain: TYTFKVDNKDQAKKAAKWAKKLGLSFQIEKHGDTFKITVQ

Variants of: B1
Assay: folding stability dG (cDNA display proteolysis); higher = more stable
Conditions: PBS, room temperature
Binary call on folding stability dG: Fulfilled from 2 kcal/mol upward, Not fulfilled beneath that.

These solved cases illustrate the format of a correct answer.
>>> print(df.to_string())
   mutation_annotation  category_label
0                 W18K   Not fulfilled
1                 D33E       Fulfilled

INPUT: API: above_or_equal(metric=folding stability dG, cutoff=2 kcal/mol) for item `A19Q`
OUTPUT: Not fulfilled

INPUT: API: above_or_equal(metric=folding stability dG, cutoff=2 kcal/mol) for item `S25V`
OUTPUT: Fulfilled

INPUT: API: above_or_equal(metric=folding stability dG, cutoff=2 kcal/mol) for item `F35V`
OUTPUT: Not fulfilled
